- target or test system: CD28 (human) (UniProt P10747)
- test description: flow cytometry, Jurkat/IL2 reporter cells (CD28)
assay readout: MFI at 33.3 nM (MFI)

Some entries whose results are on file:
[
  {
    "binder": "variant CD80 IgV-Fc R29H/E35D/M43V/M47I/I49V (Fc fusion) VIHVTKEVKEVATLSCGHNVSVEELAQTHIYWQKDKKMVLTMVSGDINVWPEYKNRTIFDITNNLSIVILALRPSDEGTYECVVLKYEKDAFKREHLAEVTLSVKAD",
    "readout number": 336
  },
  {
    "binder": "variant CD80 IgV-Fc E35D/D46E/M47V/V68M/D90G/K93E (Fc fusion) VIHVTKEVKEVATLSCGHNVSVEELAQTRIYWQKDKKMVLTMMSGEVNIWPEYKNRTIFDITNNLSIMILALRPSDEGTYECVVLKYEKGAFEREHLAEVTLSVKAD",
    "readout number": 27100
  },
  {
    "binder": "variant CD80 IgV-Fc Q33L/E35D/M47I/N48D/A71G (Fc fusion) VIHVTKEVKEVATLSCGHNVSVEELAQTRIYWLKDKKMVLTMMSGDIDIWPEYKNRTIFDITNNLSIVILGLRPSDEGTYECVVLKYEKDAFKREHLAEVTLSVKAD",
    "readout number": 644
  },
  {
    "binder": "variant CD80 IgV-Fc E35D/D46V/M47L/V68M/L85Q (Fc fusion) VIHVTKEVKEVATLSCGHNVSVEELAQTRIYWQKDKKMVLTMMSGVLNIWPEYKNRTIFDITNNLSIMILALRPSDEGTYECVVQKYEKDAFKREHLAEVTLSVKAD",
    "readout number": 464
  },
  {
    "binder": "variant CD80 IgV-Fc E35D/M47V/N48T/L85Q (Fc fusion) VIHVTKEVKEVATLSCGHNVSVEELAQTRIYWQKDKKMVLTMMSGDVTIWPEYKNRTIFDITNNLSIVILALRPSDEGTYECVVQKYEKDAFKREHLAEVTLSVKAD",
    "readout number": 692
  }
]

a: variant CD80 IgV-Fc V22D/E35D/M47L/L70M/L97Q (Fc fusion) VIHVTKEVKEVATLSCGHNVSDEELAQTRIYWQKDKKMVLTMMSGDLNIWPEYKNRTIFDITNNLSIVIMALRPSDEGTYECVVLKYEKDAFKREHQAEVTLSVKAD
b: variant CD80 IgV-Fc H18Y/A26E/E35D/M47L/L85Q/D90G (Fc fusion) VIHVTKEVKEVATLSCGYNVSVEELEQTRIYWQKDKKMVLTMMSGDLNIWPEYKNRTIFDITNNLSIVILALRPSDEGTYECVVQKYEKGAFKREHLAEVTLSVKAD
Prompt: Which is greater in MFI at 33.3 nM, the first item a or the second item b ? Which one? Tell me its label.
Completion: b
(b: 3540 MFI, a: 527 MFI)
